Species on record: Mus musculus
Assay remarks: Maximum tolerated dose(MTD)in CD-1 male mice.
Assay type: functional
Property name: MTD (mg/kg)
Numbers only, in mg/kg.

Observe how each entry below is paired with its result.
Cpd smiles: COc1ccc(NS(=O)(=O)c2c(F)c(F)c(F)c(F)c2F)cc1NC(=O)[C@@H](NC(C)=O)[C@@H](C)O
Property name: MTD
Result unit: mg/kg
Recorded measurement: 100
//
Cpd smiles: COc1ccc(NS(=O)(=O)c2c(F)c(F)c(F)c(F)c2F)cc1NC(=O)CNC(C)=O
Property name: MTD
Result unit: mg/kg
Recorded measurement: 40
//
Cpd smiles: COc1ccc(NS(=O)(=O)c2c(F)c(F)c(F)c(F)c2F)cc1NC(=O)[C@H](CO)NC(C)=O
Property name: MTD
Result unit: mg/kg
Recorded measurement: 125
//
Cpd smiles: COc1ccc(NS(=O)(=O)c2c(F)c(F)c(F)c(F)c2F)cc1NC(=O)[C@H](C)NC(C)=O
Property name: MTD
Result unit: mg/kg
Recorded measurement: 75

Please look at the following compound next.
Measured MTD, COc1ccc(NS(=O)(=O)c2c(F)c(F)c(F)c(F)c2F)cc1N : 30

These data points were gathered from ChEMBL document CHEMBL1134655.
